Molecular target: HLA-A*30:01
Test: IEDB peptide-MHC binding, purified MHC/competitive/radioactivity; filed as Kd, often an IC50 or EC50 that approximates it; bounds were set here for any values at or beyond the usual limits of such assays
Settings: source organism: Mammarenavirus brazilense
pKd: −log10 of the molar value.
measurement_kind: pKd

The measured pKd that `TADDITMGY` showed for HLA-A*30:01 is ≤ 4.11

* * *

Target: HLA-A*02:01
Test: IEDB peptide-MHC binding, purified MHC/competitive/fluorescence; filed as Kd, often an IC50 or EC50 that approximates it; bounds were set here for any values at or beyond the usual limits of such assays
Settings: source organism: Giardia lamblia ATCC 50803
pKd: −log10 of the molar value.
measurement_kind: pKd

The measured pKd that `ALGGSCHTT` showed for HLA-A*02:01 is ≤ 4.70

* * *

Biological target: HLA-A*26:03
Test: IEDB peptide-MHC binding, purified MHC/direct/fluorescence; filed as Kd, often an IC50 or EC50 that approximates it; bounds were set here for any values at or beyond the usual limits of such assays
Conditions: source organism: Bacillus anthracis str. A0389
pKd: −log10 of the molar value.
measurement_kind: pKd

// recorded pKd for `KLYVNGKAY` : ≤ 4.70

* * *

Target: HLA-A*02:03
Experiment: IEDB peptide-MHC binding, purified MHC/competitive/radioactivity; filed as Kd, often an IC50 or EC50 that approximates it; bounds were set here for any values at or beyond the usual limits of such assays
Settings: source organism: Dengue virus 3 Singapore/8120/1995
measurement_kind: Kd (nM)
# value in nM; strip the unit string

// recorded Kd for `LLVTHYAII` : 39.2

* * *

Target: HLA-A*03:01
Assay: IEDB peptide-MHC binding, purified MHC/competitive/radioactivity; filed as Kd, often an IC50 or EC50 that approximates it; bounds were set here for any values at or beyond the usual limits of such assays
Conditions: source organism: Vaccinia virus WR
measurement_kind: log10(Kd) (log10 of the value in nM)
Annotation: log10 of Kd, nM basis.

// recorded log10(Kd) for `GAAVTLNRIK` : 3.24

// recorded log10(Kd) for `MTLDDLAIK` : 2.97

// recorded log10(Kd) for `PTKRCRLLK` : 3.04

// recorded log10(Kd) for `TTLLNETAK` : 2.30

// recorded log10(Kd) for `VSDLYTSMR` : 3.40

Further cases:
// recorded log10(Kd) for `PLTSLVITY` : 4.14

// recorded log10(Kd) for `VLEIINDKGK` : 4.00

// recorded log10(Kd) for `NMINKLYGY` : 3.41

// recorded log10(Kd) for `GVIDTMRIY` : 3.23

// recorded log10(Kd) for `LARRPTPKK` : 2.27

// recorded log10(Kd) for `YTISSESLVY` : 2.92

* * *

Target: HLA-B*40:01
Assay: IEDB peptide-MHC binding, purified MHC/direct/fluorescence; filed as Kd, often an IC50 or EC50 that approximates it; bounds were set here for any values at or beyond the usual limits of such assays
Details: source organism: Vibrio cholerae
measurement_kind: pKd
For clarity, pKd is expressed as the negative log10 of concentration in mol/L.

// recorded pKd for `TTILGLLPM` : 6.72

* * *

Molecular target: HLA-A*01:01
Assay: IEDB peptide-MHC binding, purified MHC/direct/fluorescence; filed as Kd, often an IC50 or EC50 that approximates it; bounds were set here for any values at or beyond the usual limits of such assays
Details: source organism: Salmonella enterica subsp. enterica serovar Typhimurium
measurement_kind: Kd

// recorded Kd for `NSDYMMWVG` : ≥ 20 µM

* * *

Biological target: HLA-B*45:01
Assay: IEDB peptide-MHC binding, purified MHC/competitive/radioactivity; filed as Kd, often an IC50 or EC50 that approximates it; bounds were set here for any values at or beyond the usual limits of such assays
Settings: source organism: Mammarenavirus juninense
measurement_kind: Kd

// recorded Kd for `SDFLISEML` : ≥ 27.6 µM

* * *

Target: HLA-A*26:01
Test: IEDB peptide-MHC binding, purified MHC/competitive/radioactivity; filed as Kd, often an IC50 or EC50 that approximates it; bounds were set here for any values at or beyond the usual limits of such assays
Details: source organism: Mammarenavirus brazilense
measurement_kind: pKd
For clarity, pKd is expressed as the negative log10 of concentration in mol/L.

// recorded pKd for `TADDITMGY` : 5.33

* * *

Molecular target: HLA-A*31:01
Experiment: IEDB peptide-MHC binding, purified MHC/direct/fluorescence; filed as Kd, often an IC50 or EC50 that approximates it; bounds were set here for any values at or beyond the usual limits of such assays
Conditions: source organism: Salmonella enterica subsp. enterica serovar Typhimurium
pKd: −log10 of the molar value.
measurement_kind: pKd

// recorded pKd for `NSDYMMWVG` : ≤ 4.70

* * *

Target: HLA-B*51:01
Assay: IEDB peptide-MHC binding, purified MHC/competitive/fluorescence; filed as Kd, often an IC50 or EC50 that approximates it; bounds were set here for any values at or beyond the usual limits of such assays
Conditions: source organism: Giardia lamblia ATCC 50803
measurement_kind: Kd

// recorded Kd for `ALGGSCHTT` : ≥ 20 µM

* * *

Biological target: HLA-A*11:01
Assay: IEDB peptide-MHC binding, purified MHC/direct/fluorescence; filed as Kd, often an IC50 or EC50 that approximates it; bounds were set here for any values at or beyond the usual limits of such assays
Conditions: source organism: Corynebacterium glutamicum
measurement_kind: Kd (nM)
# value in nM; strip the unit string

// recorded Kd for `ATQPVHWFL` : 21

* * *

Target: HLA-A*30:01
Experiment: IEDB peptide-MHC binding, purified MHC/direct/fluorescence; filed as Kd, often an IC50 or EC50 that approximates it; bounds were set here for any values at or beyond the usual limits of such assays
Settings: source organism: Aggregatibacter actinomycetemcomitans
measurement_kind: Kd

The measured Kd that `RSEVELCIY` showed for HLA-A*30:01 is ≥ 10 µM

* * *

Target: HLA-A*31:01
Experiment: IEDB peptide-MHC binding, purified MHC/competitive/radioactivity; filed as Kd, often an IC50 or EC50 that approximates it; bounds were set here for any values at or beyond the usual limits of such assays
Settings: source organism: Vaccinia virus Copenhagen
We begin with a simple list: items and their reported pKd.
For clarity, pKd is expressed as the negative log10 of concentration in mol/L.

Past entries and their recorded results:
// recorded pKd for `GFTATICLK` : 5.76

// recorded pKd for `ILARRPTPKK` : 4.74

// recorded pKd for `ILARRPTPK` : 5.81

// switching to the query sequence
// recorded pKd for `YTFAISYCR` : 9.03

* * *

Biological target: HLA-B*15:01
Test: IEDB peptide-MHC binding, purified MHC/direct/fluorescence; filed as Kd, often an IC50 or EC50 that approximates it; bounds were set here for any values at or beyond the usual limits of such assays
Settings: source organism: Human immunodeficiency virus 1
measurement_kind: Kd (nM)
# value in nM; strip the unit string

// recorded Kd for `NSSKVSQNY` : 301

* * *

Target: HLA-A*26:01
Assay: IEDB peptide-MHC binding, purified MHC/direct/fluorescence; filed as Kd, often an IC50 or EC50 that approximates it; bounds were set here for any values at or beyond the usual limits of such assays
Conditions: source organism: Corynebacterium glutamicum
measurement_kind: Kd

// recorded Kd for `ATQPVHWFL` : ≥ 20 µM

* * *

Target: HLA-A*02:01
Test: IEDB peptide-MHC binding, purified MHC/direct/fluorescence; filed as Kd, often an IC50 or EC50 that approximates it; bounds were set here for any values at or beyond the usual limits of such assays
Conditions: source organism: Influenza A virus (A/quail/Hong Kong/FY298/00(H9N2))
pKd: −log10 of the molar value.
measurement_kind: pKd

The measured pKd that `ALTLNTMTK` showed for HLA-A*02:01 is ≤ 4.70

* * *

We begin with a simple list: items and their reported pKd.
Target: HLA-A*32:01
Test: IEDB peptide-MHC binding, purified MHC/competitive/radioactivity; filed as Kd, often an IC50 or EC50 that approximates it; bounds were set here for any values at or beyond the usual limits of such assays
Settings: source organism: Vaccinia virus Copenhagen
For clarity, pKd is expressed as the negative log10 of concentration in mol/L.

The measured pKd that `SPGIRPRFL` showed for HLA-A*32:01 is 5.55

The measured pKd that `VSFSPSLTF` showed for HLA-A*32:01 is 6.13

The measured pKd that `LIPFLILFI` showed for HLA-A*32:01 is 4.92

The measured pKd that `MLYGIAQKI` showed for HLA-A*32:01 is 7.91

* * *

Target: HLA-A*30:01
Assay: IEDB peptide-MHC binding, purified MHC/competitive/radioactivity; filed as Kd, often an IC50 or EC50 that approximates it; bounds were set here for any values at or beyond the usual limits of such assays
Conditions: source organism: Vaccinia virus WR
We begin with a simple list: items and their reported Kd.

Past entries and their recorded results:
// recorded Kd for `HQHLAIMFK` : 4.99 nM

// recorded Kd for `AAKGASMTL` : 0.998 nM

// recorded Kd for `HLYNILNNI` : 1450 nM

// recorded Kd for `KTLKYSNKI` : 37.5 nM

// recorded Kd for `MSKSHAAYI` : 0.227 nM

// switching to the query sequence
// recorded Kd for `KYKPVYSYV` : 0.74 nM

# credit: the Immune Epitope Database (IEDB)
